Test Description: Lipophilicity, log D of the compound at pH 7.4
Type: physicochemical
Details: buffer
Parameter: logD
I'd appreciate a reply containing only the number, no unit.

Give its logD value. Item: COc1cc(C(O)P(=O)(O)CC[C@H](N)C(=O)O)cc([N+](=O)[O-])c1O (mixture of isomers) -0.7

----------
Test Description: Fraction unbound in human plasma
Format: ADME, cell-free
Parameter: fraction unbound
I'd appreciate a reply containing only the number, no unit.

Give its fraction unbound value. Item: COc1cc(C(O)P(=O)(O)CC[C@H](N)C(=O)O)cc([N+](=O)[O-])c1O (mixture of isomers) 0.73

----------
Test Description: Oral bioavailability in Sprague-Dawley rat at 10 mg/kg
Assay type: ADME, organism-based
Details: in vivo
Parameter: bioavailability (%)
Express it in %; write the number only.

Give its bioavailability value. Item: COc1cc(C(O)P(=O)(O)CC[C@H](N)C(=O)O)cc([N+](=O)[O-])c1O (mixture of isomers) 0.8

Cited source: ChEMBL document CHEMBL3112398
